Tested on: Mycobacterium tuberculosis
assay.method.text: Antimycobacterial activity against Mycobacterium tuberculosis H37Rv grown on Lowenstein-Jensen solid medium assessed as growth inhibition incubated with compound dissolved in water measured after 4 weeks
Assay type: functional
test.context: 672 h
readout: MIC
Report as: number unit

| compound | MIC |
| --- | --- |
| C[C@]12CC(=O)CC(CO)(CO)C1CC[C@@]13CC4[C@@H](CC12)[C@@]4(C)C3 (some centres undefined) | 23.3 µg/mL |
| COc1cc(O)c(CCCc2ccccc2)c(O)c1OC | 49.7 µg/mL |
| COc1ccc(-c2oc3cc(O)cc(O)c3c(=O)c2O)cc1 [KAEMPFERIDE] | 26 µg/mL |

Kindly review the next compound as well.
Need MIC of COc1cc(O)cc(O)c1C/C=C/c1ccccc1 , thanks.
53.7 µg/mL
